target: FRK (Homo sapiens)
Sequence (P42685 whole entry): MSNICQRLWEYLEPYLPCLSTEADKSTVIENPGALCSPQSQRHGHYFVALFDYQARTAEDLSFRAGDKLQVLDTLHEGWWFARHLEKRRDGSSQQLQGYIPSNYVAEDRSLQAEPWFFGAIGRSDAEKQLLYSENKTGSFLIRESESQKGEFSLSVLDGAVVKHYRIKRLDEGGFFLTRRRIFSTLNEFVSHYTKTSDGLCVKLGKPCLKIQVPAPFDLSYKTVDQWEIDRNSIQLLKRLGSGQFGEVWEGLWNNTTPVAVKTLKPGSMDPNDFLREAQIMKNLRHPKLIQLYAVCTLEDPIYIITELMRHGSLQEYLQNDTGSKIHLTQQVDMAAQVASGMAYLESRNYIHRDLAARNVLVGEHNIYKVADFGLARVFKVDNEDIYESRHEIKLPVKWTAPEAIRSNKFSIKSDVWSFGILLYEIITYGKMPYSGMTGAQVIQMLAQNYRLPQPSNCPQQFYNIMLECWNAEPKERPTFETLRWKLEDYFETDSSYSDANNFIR
test protocol: KINOMEscan competition binding
measurement context: read-out: %Inh FRK
Recorded inhibition at 1 µM for the following compounds
measure: inhibition at 1 µM (%)

INSERT INTO assay_data (compound, recorded_result) VALUES
  ('O=c1cc(N2CCOCC2)nc2n(Cc3cccc(Cl)c3Cl)c(C3CC3)nn12 [UNC10225469A]', 0),
  ('COc1cccc(OC)c1C(=O)Nc1cccc(-c2nn3ccccc3c2-c2ccnc(Nc3cccc(F)c3)n2)c1 [UNC10225310A]', 16),
  ('CS(=O)(=O)Cc1ccc(Nc2nccc(-c3c(-c4cccc(NC(=O)C5CCCCC5)c4)nn4ncccc34)n2)cc1 [UNC10225159A]', 4),
  ('Cn1cc(-c2cnc(N)c3c(-c4ccc5c(c4)CCN5C(=O)Cc4ccccc4)csc23)cn1 [UNC10225012A]', 38),
  ('Cc1ccc(NC(=O)Nc2cccc(C(F)(F)F)c2)cc1 [UNC10225187A]', 0);

====

target: UniProt Q8NI60
Sequence (Q8NI60 163-647): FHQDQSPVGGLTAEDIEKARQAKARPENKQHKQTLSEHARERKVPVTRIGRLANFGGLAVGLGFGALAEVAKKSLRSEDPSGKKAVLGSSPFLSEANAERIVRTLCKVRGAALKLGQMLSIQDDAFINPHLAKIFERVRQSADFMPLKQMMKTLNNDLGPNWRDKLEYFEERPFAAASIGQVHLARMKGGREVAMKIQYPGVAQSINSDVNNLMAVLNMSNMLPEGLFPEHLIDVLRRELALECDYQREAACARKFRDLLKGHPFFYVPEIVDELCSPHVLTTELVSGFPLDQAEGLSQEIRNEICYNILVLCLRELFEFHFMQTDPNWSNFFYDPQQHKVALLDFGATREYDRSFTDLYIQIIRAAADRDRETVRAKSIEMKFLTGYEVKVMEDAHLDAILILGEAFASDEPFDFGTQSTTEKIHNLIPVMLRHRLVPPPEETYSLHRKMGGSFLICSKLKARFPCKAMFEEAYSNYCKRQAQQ
test protocol: KINOMEscan competition binding
measurement context: read-out: %Inh ADCK3
Outcome label depends on inhibition at 1 µM relative to 7%: at/above gives Satisfied, below gives Not satisfied.

INSERT INTO assay_data (molecule, class_assignment) VALUES
  ('Cc1ccc(NC(=O)Nc2cccc(C(F)(F)F)c2)cc1 [UNC10225187A]', 'Not satisfied'),
  ('CS(=O)(=O)Cc1ccc(Nc2nccc(-c3c(-c4cccc(NC(=O)C5CCCCC5)c4)nn4ncccc34)n2)cc1 [UNC10225159A]', 'Satisfied'),
  ('COc1cccc(OC)c1C(=O)Nc1cccc(-c2nn3ccccc3c2-c2ccnc(Nc3cccc(F)c3)n2)c1 [UNC10225310A]', 'Not satisfied'),
  ('O=c1cc(N2CCOCC2)nc2n(Cc3cccc(Cl)c3Cl)c(C3CC3)nn12 [UNC10225469A]', 'Satisfied');

====

target: HIPK2 (Homo sapiens, UniProt Q9H2X6)
Sequence (Q9H2X6 whole entry): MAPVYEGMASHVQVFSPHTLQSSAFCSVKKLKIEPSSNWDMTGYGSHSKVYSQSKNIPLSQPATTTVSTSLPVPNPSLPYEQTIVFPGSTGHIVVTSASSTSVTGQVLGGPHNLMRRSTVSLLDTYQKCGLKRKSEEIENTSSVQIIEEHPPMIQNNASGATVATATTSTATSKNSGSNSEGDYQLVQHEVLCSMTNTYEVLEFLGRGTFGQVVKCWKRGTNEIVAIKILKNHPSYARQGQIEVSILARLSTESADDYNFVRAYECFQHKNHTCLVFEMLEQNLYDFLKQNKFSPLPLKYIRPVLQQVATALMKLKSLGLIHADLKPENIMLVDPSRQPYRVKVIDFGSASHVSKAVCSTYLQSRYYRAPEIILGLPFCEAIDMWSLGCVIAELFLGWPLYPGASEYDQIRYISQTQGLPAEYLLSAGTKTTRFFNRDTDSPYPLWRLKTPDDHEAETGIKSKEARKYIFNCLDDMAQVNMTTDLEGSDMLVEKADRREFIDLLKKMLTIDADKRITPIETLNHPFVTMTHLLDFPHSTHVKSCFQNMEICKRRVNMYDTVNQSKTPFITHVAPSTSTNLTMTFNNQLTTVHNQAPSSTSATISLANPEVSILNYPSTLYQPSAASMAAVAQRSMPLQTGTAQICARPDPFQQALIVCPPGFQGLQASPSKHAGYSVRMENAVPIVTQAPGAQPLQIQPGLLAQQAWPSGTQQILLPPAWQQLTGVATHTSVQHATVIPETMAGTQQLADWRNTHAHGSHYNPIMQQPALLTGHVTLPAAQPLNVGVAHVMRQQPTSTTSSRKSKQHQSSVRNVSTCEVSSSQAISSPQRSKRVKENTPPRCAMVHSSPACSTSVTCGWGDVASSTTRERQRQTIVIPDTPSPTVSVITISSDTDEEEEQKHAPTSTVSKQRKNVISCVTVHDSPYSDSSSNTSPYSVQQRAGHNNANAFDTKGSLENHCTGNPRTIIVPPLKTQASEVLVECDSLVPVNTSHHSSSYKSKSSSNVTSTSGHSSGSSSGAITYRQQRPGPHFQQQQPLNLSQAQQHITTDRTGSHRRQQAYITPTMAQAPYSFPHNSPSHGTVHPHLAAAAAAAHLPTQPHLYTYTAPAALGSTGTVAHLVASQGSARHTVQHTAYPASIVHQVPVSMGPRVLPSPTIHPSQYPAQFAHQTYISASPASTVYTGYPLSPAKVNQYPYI
test protocol: KINOMEscan competition binding
measurement context: read-out: %Inh HIPK2
measure: inhibition at 1 µM (%)

INSERT INTO assay_data (compound, target, recorded_result) VALUES
  ('COc1cccc(OC)c1C(=O)Nc1cccc(-c2nn3ccccc3c2-c2ccnc(Nc3cccc(F)c3)n2)c1 [UNC10225310A]', 'HIPK2 (Homo sapiens, UniProt Q9H2X6)', 0),
  ('CS(=O)(=O)Cc1ccc(Nc2nccc(-c3c(-c4cccc(NC(=O)C5CCCCC5)c4)nn4ncccc34)n2)cc1 [UNC10225159A]', 'HIPK2 (Homo sapiens, UniProt Q9H2X6)', 14),
  ('Cn1cc(-c2cnc(N)c3c(-c4ccc5c(c4)CCN5C(=O)Cc4ccccc4)csc23)cn1 [UNC10225012A]', 'HIPK2 (Homo sapiens, UniProt Q9H2X6)', 0),
  ('Cc1ccc(NC(=O)Nc2cccc(C(F)(F)F)c2)cc1 [UNC10225187A]', 'HIPK2 (Homo sapiens, UniProt Q9H2X6)', 0),
  ('O=c1cc(N2CCOCC2)nc2n(Cc3cccc(Cl)c3Cl)c(C3CC3)nn12 [UNC10225469A]', 'HIPK2 (Homo sapiens, UniProt Q9H2X6)', 0);

====

target: CSK (Homo sapiens, UniProt P41240)
Sequence (P41240 whole entry): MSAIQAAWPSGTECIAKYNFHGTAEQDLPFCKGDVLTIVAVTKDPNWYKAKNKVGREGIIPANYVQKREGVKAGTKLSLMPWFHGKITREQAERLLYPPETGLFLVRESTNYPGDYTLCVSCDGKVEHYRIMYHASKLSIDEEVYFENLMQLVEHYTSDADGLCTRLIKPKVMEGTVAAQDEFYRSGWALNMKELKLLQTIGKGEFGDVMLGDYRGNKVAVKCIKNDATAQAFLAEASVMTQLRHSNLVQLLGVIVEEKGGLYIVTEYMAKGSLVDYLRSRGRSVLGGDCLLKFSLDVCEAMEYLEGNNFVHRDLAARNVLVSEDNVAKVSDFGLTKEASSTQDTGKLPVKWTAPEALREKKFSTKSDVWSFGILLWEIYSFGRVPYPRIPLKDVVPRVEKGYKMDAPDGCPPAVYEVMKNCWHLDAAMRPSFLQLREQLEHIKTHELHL
test protocol: KINOMEscan competition binding
measurement context: read-out: %Inh CSK
// values below are reported inhibition at 1 µM
measure: inhibition at 1 µM (%)

INSERT INTO measurements (compound, unit_of_measure, recorded_result) VALUES
  ('CS(=O)(=O)Cc1ccc(Nc2nccc(-c3c(-c4cccc(NC(=O)C5CCCCC5)c4)nn4ncccc34)n2)cc1 [UNC10225159A]', '%', 10),
  ('COc1cccc(OC)c1C(=O)Nc1cccc(-c2nn3ccccc3c2-c2ccnc(Nc3cccc(F)c3)n2)c1 [UNC10225310A]', '%', 18),
  ('O=c1cc(N2CCOCC2)nc2n(Cc3cccc(Cl)c3Cl)c(C3CC3)nn12 [UNC10225469A]', '%', 8),
  ('Cc1ccc(NC(=O)Nc2cccc(C(F)(F)F)c2)cc1 [UNC10225187A]', '%', 28),
  ('Cn1cc(-c2cnc(N)c3c(-c4ccc5c(c4)CCN5C(=O)Cc4ccccc4)csc23)cn1 [UNC10225012A]', '%', 20);
